Source of measurements: ChEMBL document CHEMBL1833792

assay.comment: Selectivity ratio of Ki for carbonic anhydrase 1 to Ki for carbonic anhydrase 9
Reported Ratio Ki is given for each of the following molecules.

The value of Ratio Ki measured for the molecule NS(=O)(=O)c1ccc(-c2cnnn2[C@@H]2O[C@H](CO)[C@@H](O)[C@H](O)[C@H]2O)cc1 turned out to be 11

---
The reported value for CC(=O)O[C@H]1[C@H](OC(C)=O)[C@H](OC(C)=O)CO[C@H]1n1nncc1-c1ccc(S(N)(=O)=O)cc1 in terms of Ratio Ki is 64

Lab note: CC(=O)OC[C@H]1O[C@@H](n2nncc2-c2ccc(S(N)(=O)=O)cc2)[C@H](OC(C)=O)[C@@H](OC(C)=O)[C@@H]1O[C@H]1O[C@H](COC(C)=O)[C@@H](OC(C)=O)[C@H](OC(C)=O)[C@H]1OC(C)=O gave Ratio Ki of 0.91
